endpoint: melting point

>  <molecule>
C#Cc1cc(C)cc(C)c1-c1c(O)c(C)nn(C)c1=O

>  <melting point>
179 to 181 °C

$$$$
>  <molecule>
COc1ccc(C=Cc2nc3c([nH]2)c(=O)n(C)c(=O)n3C)cc1OC

>  <melting point>
> 320 °C

$$$$
>  <molecule>
COC(=O)C(NC(=O)C(NC(C)=O)(OC)C(Br)Br)=C(C)C (stereo unspecified)

>  <melting point>
150 to 151 °C

$$$$
>  <molecule>
COC(=O)C=Cc1ccc(-c2ccccc2)cc1

>  <melting point>
144 to 147 °C

$$$$
>  <molecule>
CCOCc1nc2c(N)nc3cc(-c4ccncc4)ccc3c2n1CC(C)C

>  <melting point>
211 to 213 °C

$$$$

Consider now this further molecule.
What measured melting point goes with COc1ccc2c(c1)c(=O)c(-c1nnnn1C)cn2C ?
280 to 283 °C
